Values were extracted from patent US20070232527A1.

test: Clinical study of the effect of ibuprofen on pharmacokinetics of Formula Ia; type: in vivo; details: human; plasma Formula Ia; single 400 mg dose PO fasted; alone or with ibuprofen 600 mg TID; read-out: MRT(l), Mean (% CV)
Reported Endpoint: MRT (h)
Value expressed in h; do not type the unit.

Quick check: MRT of CC(C)(C)NC(=O)N[C@H](C(=O)N1C[C@H]2[C@@H]([C@H]1C(=O)NC(CC1CCC1)C(=O)C(N)=O)C2(C)C)C(C)(C)C (stereo partly shown) ?
6.57

---

tested on: cytosolic enzymes that convert Formula Ia to Formula Ia′; assay: in vitro; conditions: human, pH 7.4, % Inhibition on Metabolite Formation of Compound Formula Ia
Reported Endpoint: inhibition at 120 min, 50 μM (%)
The response must be a number in % with no trailing unit.

Item CC(C)Cc1ccc(C(C)C(=O)O)cc1 (centres unmarked) has what recorded inhibition at 120 min, 50 μM?
31.3

With those in mind, consider the next molecule.
Requested field: inhibition at 120 min, 50 μM. Item: `Cc1ccc(-c2cc(C(F)(F)F)nn2-c2ccc(S(N)(=O)=O)cc2)cc1`
20.5
